Molecular target: GDP-bound KRAS wild-type protein (Homo sapiens, UniProt P01116)
Sequence (P01116 1-188 isoform P01116-2): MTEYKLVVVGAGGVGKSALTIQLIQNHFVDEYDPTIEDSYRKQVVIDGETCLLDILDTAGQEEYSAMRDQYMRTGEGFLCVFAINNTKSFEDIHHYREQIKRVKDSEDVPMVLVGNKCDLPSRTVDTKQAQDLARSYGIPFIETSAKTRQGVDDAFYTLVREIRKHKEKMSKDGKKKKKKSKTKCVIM
Assay: Binding to KRAS by surface plasmon resonance (SPR), dissociation constant KD
Settings: Single Cycle Kinetics, 1:1 binding model
Quantity measured: Kd (nM)
Quick note: give the figure in nM, leave out the unit.

Quote Kd reported for CCO[C@@H]1C[C@H]2C(=O)NC3(CCC3)C(=O)N(C)[C@@H](C3CCCC3)C(=O)N(C)[C@H](C(=O)N(C)C)CC(=O)N(C)[C@@H](Cc3cccnc3)C(=O)N[C@@H]([C@@H](C)CC)C(=O)N(C)CC(=O)N(C)[C@H]3CCCCCN(C3=O)[C@@H](Cc3ccc(F)cc3)C(=O)N(C)CC(=O)N[C@@H](CCc3cc(F)c(C(F)(F)F)c(F)c3)C(=O)N2C1 please.
0.04

---

The following compounds are listed with their measured pKd values.
Molecular target: UniProt P01116
Assay: Binding to KRAS by surface plasmon resonance (SPR), dissociation constant KD
Settings: 1:1 binding model
// pKd: -log10(molar conc.)

Reference set (4 entries):
CCC[C@H]1C(=O)N[C@@H]([C@@H](C)CC)C(=O)N(C2CC2)CC(=O)N(C)[C@H]2C/C=C\CCN(C2=O)[C@@H](Cc2ccc(C)cc2)C(=O)N(C)CC(=O)N[C@@H](CCc2ccc(Cl)c(Cl)c2)C(=O)N2C[C@H](OCC)C[C@H]2C(=O)NC2(CC(C)(C)C2)C(=O)N(C)[C@@H](CC2CCC2)C(=O)N(C)[C@H](C(=O)N(C)C)CC(=O)N1C [PP2761]: 8.55
CCC(CC)[C@H]1C(=O)N(C)[C@H](C(=O)N(C)C)CC(=O)N(C)[C@@H](COC)C(=O)N[C@@H]([C@@H](C)CC)C(=O)N(C)CC(=O)N(C)[C@H]2C/C=C\CCN(C2=O)[C@@H](CC2CCCCC2)C(=O)N(C)CC(=O)N[C@@H](CCc2ccc(C(F)(F)F)c(OC)c2)C(=O)N2C[C@@H](C)C[C@H]2C(=O)NC2(CC(C)(C)C2)C(=O)N1C [PP2466]: 8.41
CCO[C@@H]1C[C@H]2C(=O)NC3(CC(C)(C)C3)C(=O)N(C)[C@@H](CC(C)(C)C)C(=O)N(C)[C@H](C(=O)N(C)C)CC(=O)N(C)[C@@H](COC)C(=O)N[C@@H]([C@@H](C)CC)C(=O)N(C3CC3)CC(=O)N(C)[C@H]3C/C=C\CCN(C3=O)[C@@H](Cc3ccc(C(F)(F)F)cc3)C(=O)N(C)CC(=O)N[C@@H](CCc3ccc(C(F)(F)F)c(OC)c3)C(=O)N2C1 [PP2748]: 9.70
CCC[C@H]1C(=O)N[C@@H]([C@@H](C)CC)C(=O)N(C)CC(=O)N(C)[C@H]2C/C=C\CCN(C2=O)[C@@H](Cc2ccc(C(F)(F)F)cc2)C(=O)N(C)CC(=O)N[C@@H](CCc2ccc(Cl)c(Cl)c2)C(=O)N2C[C@H](OCC)C[C@H]2C(=O)NC2(CC(C)(C)C2)C(=O)N(C)[C@@H](CC2CCC2)C(=O)N(C)[C@H](C(=O)N(C)C)CC(=O)N1C [PP2766]: 9.28

Quote pKd reported for CCOC[C@H]1C(=O)N[C@@H]([C@@H](C)CC)C(=O)N(C)CC(=O)N(C)[C@H]2C/C=C\CCN(C2=O)[C@@H](Cc2ccc(C)cc2)C(=O)N(C)CC(=O)N[C@@H](CCc2ccc(C(F)(F)F)c(Cl)c2)C(=O)N2C[C@H](OCC)C[C@H]2C(=O)NC2(CC(C)(C)C2)C(=O)N(C)[C@@H](C2CCCC2)C(=O)N(C)[C@H](C(=O)N(C)CC)CC(=O)N1C [PP2401] please.
9.92
